# credit: patent US20070043024A1

Property: log10(IC50); scope: individual compounds
assay target: human Nav1.8 (hNav1.8) ion channel (Homo sapiens)
Construct: expressed in transfected cells
assay method text: Inhibition of human Nav1.8 stably expressed in SH-SY-5Y cells (membrane potential dye fluorescence assay)
Format: cell-based
applied conditions: Table 1; SH-SY-5Y hNav1.8 cells, inhibition of membrane depolarisation, FLIPR membrane potential dye, 250 nM TTX, test concentration range 100 μM-0.05 μM; read-out: IC50
Reminder: these figures are log10 of reported IC50, in nM before transformation.

Field: example entries. Status: answers known.
Reported log10(IC50) for Oc1cccc2c1CN(Cc1ccc(SC(F)(F)F)cc1)CC2 : what is it? 3.34

Next compound: Fc1ccc(C(CCCN2CCc3ccccc3C2)c2ccc(F)cc2)cc1 2.63

Also, O=C(CC(c1ccc(F)cc1)c1ccc(F)cc1)N1CCc2ccccc2C1 please. 3.20

Quick one: COc1cccc2c1CN(C(=O)CNC(c1ccccc1)c1ccccc1)CC2 3.14

Same for COc1cccc2c1CN(C(C)C(=O)NCCC(c1ccccc1)c1ccccc1)CC2 (centres unmarked) 2.82

New cases:
Any idea what log10(IC50) was measured for O=C(CN1CCc2ccccc2C1)NCC(c1ccccc1)c1ccccc1 ? 2.98

Next record, please: O=C(CN1Cc2ccccc2C1)N1CCN(C(c2ccc(F)cc2)c2ccc(F)cc2)CC1 3.29

Ok, now Oc1cccc2c1CN(CCN(Cc1ccccc1)Cc1ccccc1)CC2 2.61

Queued: COc1ccc2c(c1)CN(CC(=O)N(Cc1ccccc1)Cc1ccccc1)CC2 3.04

Next up: Oc1cccc2c1CN(Cc1c(F)cccc1Cl)CC2 3.84

Similarly, O=C(CNC(c1ccccc1)c1ccccc1)N1CCc2ccccc2C1 ? 3.27

Thanks! And O=C(CN1CCc2ccccc2C1)N(Cc1ccccc1)c1ccccc1 ? 3.10

Then what about the compound Oc1cccc2c1CN(Cc1cc(C(F)(F)F)cc(C(F)(F)F)c1)CC2 ? 3.23

And for S=C(NC(c1ccccc1)c1ccccc1)N1CCc2ccccc2C1 ? 3.44

What about O=C(CN1CCc2ccccc2C1)N1CCN(C(c2ccc(F)cc2)c2ccc(F)cc2)CC1 ? 3.75

Another: O=C(CN(CCC(c1ccccc1)c1ccccc1)CC(=O)N1CCc2ccccc2C1)N1CCc2ccccc2C1 2.93

Would you kindly repeat that for O=C(CN1Cc2ccccc2C1)NCC(c1ccccc1)c1ccccc1 ? 3.31

And the next one, O=C(CN1Cc2ccccc2C1)NC(c1ccccc1)c1ccccc1 ? 3.85

Similarly, COc1cccc2c1CN(CCCC(c1ccc(F)cc1)c1ccc(F)cc1)CC2 ? 2.68

Follow-up item: O=C(CN1CCc2cccc(O)c2C1)NC1c2ccccc2-c2ccccc21 2.83

Same read-out for O=C(CN1Cc2ccccc2C1)NCCC(c1ccccc1)c1ccccc1 ? 2.99

* * *

Parameter: IC50. Scope: all listed entries.
assay target: human Nav1.8 (hNav1.8) ion channel (Homo sapiens, UniProt Q9Y5Y9)
Construct: expressed in transfected cells
Sequence (Q9Y5Y9 whole entry): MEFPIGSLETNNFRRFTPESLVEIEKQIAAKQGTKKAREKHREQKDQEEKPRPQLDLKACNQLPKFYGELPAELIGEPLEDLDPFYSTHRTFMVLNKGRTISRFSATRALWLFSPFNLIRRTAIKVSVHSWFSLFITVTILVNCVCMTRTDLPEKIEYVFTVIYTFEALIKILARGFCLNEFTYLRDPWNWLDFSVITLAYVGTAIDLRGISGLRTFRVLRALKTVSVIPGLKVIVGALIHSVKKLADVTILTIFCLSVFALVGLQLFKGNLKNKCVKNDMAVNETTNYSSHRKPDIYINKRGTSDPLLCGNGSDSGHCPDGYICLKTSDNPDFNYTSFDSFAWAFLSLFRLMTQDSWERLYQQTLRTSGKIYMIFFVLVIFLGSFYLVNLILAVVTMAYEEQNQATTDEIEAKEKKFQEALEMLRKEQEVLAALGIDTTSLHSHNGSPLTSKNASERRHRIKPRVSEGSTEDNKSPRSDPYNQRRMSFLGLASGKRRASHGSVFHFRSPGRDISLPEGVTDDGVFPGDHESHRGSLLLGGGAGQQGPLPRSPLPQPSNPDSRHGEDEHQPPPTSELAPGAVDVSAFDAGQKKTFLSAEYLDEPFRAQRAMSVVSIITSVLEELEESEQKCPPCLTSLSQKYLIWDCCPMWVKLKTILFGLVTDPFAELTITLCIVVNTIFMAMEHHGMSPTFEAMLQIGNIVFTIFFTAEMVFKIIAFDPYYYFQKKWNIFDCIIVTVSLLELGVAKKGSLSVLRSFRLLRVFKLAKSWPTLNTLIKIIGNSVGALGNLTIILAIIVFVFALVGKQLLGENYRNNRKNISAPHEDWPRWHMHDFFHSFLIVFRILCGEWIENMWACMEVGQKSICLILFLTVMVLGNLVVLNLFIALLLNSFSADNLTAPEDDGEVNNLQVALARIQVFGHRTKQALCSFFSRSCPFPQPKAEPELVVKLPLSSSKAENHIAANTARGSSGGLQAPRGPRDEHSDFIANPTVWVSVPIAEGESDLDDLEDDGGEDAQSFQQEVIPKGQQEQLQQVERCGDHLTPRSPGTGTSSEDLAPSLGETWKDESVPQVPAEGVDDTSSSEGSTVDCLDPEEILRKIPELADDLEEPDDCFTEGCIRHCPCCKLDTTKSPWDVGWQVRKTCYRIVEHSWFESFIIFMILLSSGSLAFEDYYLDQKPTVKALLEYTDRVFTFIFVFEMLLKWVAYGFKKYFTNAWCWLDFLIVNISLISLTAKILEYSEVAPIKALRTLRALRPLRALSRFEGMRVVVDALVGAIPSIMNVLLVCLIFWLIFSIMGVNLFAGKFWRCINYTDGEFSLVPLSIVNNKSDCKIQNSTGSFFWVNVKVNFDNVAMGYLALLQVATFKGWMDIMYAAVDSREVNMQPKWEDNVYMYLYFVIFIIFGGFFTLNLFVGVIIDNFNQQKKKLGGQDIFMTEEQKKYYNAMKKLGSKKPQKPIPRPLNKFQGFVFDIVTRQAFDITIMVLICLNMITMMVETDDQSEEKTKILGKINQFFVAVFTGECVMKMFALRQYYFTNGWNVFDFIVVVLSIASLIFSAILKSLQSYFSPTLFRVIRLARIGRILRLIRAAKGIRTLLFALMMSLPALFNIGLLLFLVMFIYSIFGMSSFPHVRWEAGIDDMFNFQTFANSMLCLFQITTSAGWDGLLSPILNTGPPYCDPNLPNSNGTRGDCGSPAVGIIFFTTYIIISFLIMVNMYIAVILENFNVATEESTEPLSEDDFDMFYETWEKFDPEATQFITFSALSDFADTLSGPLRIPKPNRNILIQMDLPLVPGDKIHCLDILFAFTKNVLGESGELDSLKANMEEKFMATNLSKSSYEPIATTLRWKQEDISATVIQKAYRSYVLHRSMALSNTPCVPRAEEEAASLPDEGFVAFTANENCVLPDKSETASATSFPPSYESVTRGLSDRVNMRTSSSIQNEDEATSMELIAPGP
assay method text: Inhibition of human Nav1.8 stably expressed in SH-SY-5Y cells (membrane potential dye fluorescence assay)
Format: cell-based
applied conditions: Table 2 (compound numbers of the list in the description); SH-SY-5Y hNav1.8 cells, inhibition of membrane depolarisation, FLIPR membrane potential dye, 250 nM TTX, test concentration range 100 μM-0.05 μM; read-out: IC50
Could you give me the number in nM? Just the number is fine.

Take a look at these entries with their results.
Which IC50 reading was recorded for the compound COc1ccc2c(c1)CCCN(CC(=O)NCC(c1ccccc1)c1ccccc1)C2 [Compound 84] ? 400

// query: CS(=O)(=O)Nc1cccc2c1CN(CC(=O)N1c3ccccc3Oc3ccccc31)C2 [Compound 210] 3460

# iterate: O=C(CN1CCc2cccnc2C1)N(c1ccccc1)c1ccccc1 [Compound 181] 20400

How about Nc1cccc2c1CCN(CCC(=O)NCCC(c1ccccc1)c1ccccc1)C2 [Compound 122] ? 960

Also CCOC(=O)C1CN(C(=O)CN2CCc3cccc(OC)c3C2)c2ccccc2O1 (stereo not drawn) [Compound 171] ? 1750

---
Recorded IC50 of N#Cc1cccc2c1CN(CC(=O)N1c3ccccc3Oc3ccccc31)C2 [Compound 220] , please. 800

What about this compound? O=C(CN1CCc2cccc(O)c2C1)N1c2ccccc2Oc2ccccc21 [Compound 144] 500

Now try O=C(CN1Cc2cccc(Cl)c2C1)N1c2ccccc2Oc2ccccc21 [Compound 219] . 800

Again, but for COc1cccc2c1CN(CC(=O)NCCCC(c1ccccc1)c1ccccc1)C2 [Compound 82] 1060

Please do the same for O=C(CN1CCc2cccc(O)c2C1)NCCCn1c2ccccc2c2ccccc21 [Compound 129] as well. 2480

COc1cccc2c1CN(CCNC(=O)NC(c1ccccc1)c1ccccc1)CC2 [Compound 135] , same question. 380

What about this compound? COc1ccc(C2COc3ccccc3N2C(=O)CN2CCc3cccc(OC)c3C2)cc1OC (stereo not drawn) [Compound 216] 4310

COc1cccc2c1CN(CC(=O)N1c3ccccc3Oc3ccccc31)C2 [Compound 196] ? 930

// query: COc1cccc2c1CN(CC(=O)NCCCn1c3ccccc3c3ccccc31)CC2 [Compound 128] 3510

* * *

assay target: human Nav1.8 (hNav1.8) ion channel (Homo sapiens, UniProt Q9Y5Y9)
Construct: expressed in transfected cells
assay method text: Inhibition of human Nav1.8 stably expressed in SH-SY-5Y cells (membrane potential dye fluorescence assay)
Format: cell-based
applied conditions: Table 2 (compound numbers of the list in the description); SH-SY-5Y hNav1.8 cells, inhibition of membrane depolarisation, FLIPR membrane potential dye, 250 nM TTX, test concentration range 100 μM-0.05 μM; read-out: IC50
Catalogue of compounds with associated pIC50
Scale for pIC50: -log10 of concentration given in mol/L; no unit attached.

Record excerpt, results attached:
Which pIC50 value belongs to COc1ccc2c(c1)CCCN(CC(=O)N(Cc1ccccc1)Cc1ccccc1)C2 [Compound 86] ? 6.31

Check COc1cccc2c1CN(C(C)C(=O)N1c3ccccc3Oc3ccccc31)C2 (centres unmarked) [Compound 217] too. 5.71

O=C(CN1CCc2cccc(O)c2C1)Nc1ccccc1Oc1ccccc1 [Compound 185] , same question. 5.73

Next compound up: CS(=O)(=O)Oc1cccc2c1CN(CC(=O)N1c3ccccc3Oc3ccccc31)C2 [Compound 203] 5.95

Another compound: COc1cccc2c1CN(CC(=O)N1c3ccccc3Oc3cnn(C)c31)CC2 [Compound 199] 5.08

Next:
Query: pIC50; subject: COc1ccc(N(C(=O)CN2CCc3cccc(O)c3C2)c2ccc(OC)cc2)cc1 [Compound 183] 5.65

Now the same for COc1cc2c(cc1OC)CN(CC(=O)N1c3ccccc3Sc3ccc(SC)cc31)CC2 [Compound 156] 5.63

# iterate: COc1cccc2c1CN(CC(=O)NCCCC(c1ccccc1)c1ccccc1)CC2 [Compound 81] 5.85

Follow-up item: COc1cc2c(cc1OC)CN(CC(=O)NC(c1ccc(F)cc1)c1ccc(F)cc1)CC2 [Compound 121] 5.46

Then CC(=O)Nc1cccc2c1CN(CC(=O)NCCCC(c1ccccc1)c1ccccc1)CC2 [Compound 112] ? 6.10

* * *

assay target: human Nav1.8 (hNav1.8) ion channel (Homo sapiens)
Construct: expressed in transfected cells
assay method text: Inhibition of human Nav1.8 stably expressed in SH-SY-5Y cells (membrane potential dye fluorescence assay)
Format: cell-based
applied conditions: Table 2 (compound numbers of the list in the description); SH-SY-5Y hNav1.8 cells, inhibition of membrane depolarisation, FLIPR membrane potential dye, 250 nM TTX, test concentration range 100 μM-0.05 μM; read-out: IC50
observation type: pIC50
# log scale: pIC50 equals minus log10 of the concentration in mol/L

Given the compound COc1cccc2c1CN(CC(=O)N1c3ccccc3Sc3ccc(C(C)=O)cc31)CC2 [Compound 148] , what is its reported pIC50? 5.29

And for COc1cccc2c1CN(CCNC(=S)NC(c1ccccc1)c1ccccc1)CC2 [Compound 133] ? 6.22

Another compound to check: Nc1cccc2c1CN(CC(=O)NCCCC(c1ccccc1)c1ccccc1)C2 [Compound 100] 6.01

New cases:
What value of pIC50 has been recorded for this entry: COc1cccc2c1CN(CC(=O)NNC(=O)N(c1ccccc1)c1ccccc1)CC2 [Compound 186] 4.54

And what about the compound Nc1cccc2c1CN(CCCC(c1ccc(F)cc1)c1ccc(F)cc1)C2 [Compound 102] ? 6.07

And COc1cc2c(cc1OC)CN(CCNC(=O)N1c3ccccc3Sc3ccccc31)CC2 [Compound 161] ? 5.95

Also need COc1cccc2c1CN(CCC(=O)N1c3ccccc3Oc3ccccc31)CC2 [Compound 189] , thanks. 6.29

Here is the next compound: COc1cccc2c1CN(CC(=O)N1CC(c3nnc(C)o3)Oc3ccccc31)CC2 (centres unmarked) [Compound 187] 4.72

* * *

The reader will find reported pIC50 values listed item by item below.
assay target: human Nav1.8 (hNav1.8) ion channel (Homo sapiens, UniProt Q9Y5Y9)
Construct: expressed in transfected cells
assay method text: Inhibition of human Nav1.8 stably expressed in SH-SY-5Y cells (membrane potential dye fluorescence assay)
Assay type: cell-based
applied conditions: Table 2 (compound numbers of the list in the description); SH-SY-5Y hNav1.8 cells, inhibition of membrane depolarisation, FLIPR membrane potential dye, 250 nM TTX, test concentration range 100 μM-0.05 μM; read-out: IC50
Experimental: Inhibition of Human Nav1.8 Stably Expressed in SH-SY-5Y Cells A SH-SY-5Y neuroblastoma cell line stably expressing the human […] (hNav1.8) ion channel was constructed. […] Cell plates are incubated for 30 minutes at room temperature to allow equilibration of dye and test compound. Plates are then transferred to a fluorescence plate reader for fluorescence measurement using an excitation wavelength of 530 nm whilst measuring fluorescence emission at 565 nm. […]
Scale for pIC50: -log10 of concentration given in mol/L; no unit attached.

// known answers, use as guide
Please give the measured pIC50 for this molecule: Nc1cccc2c1CN(CC(=O)NCCCC(c1ccccc1)c1ccccc1)CC2 5.74

Another molecule to check: COc1cc2c(cc1OC)CN(CC(=O)N1c3ccccc3Sc3ccccc31)CC2 5.52

Others:
# query: pIC50 of entry Cc1cc2cc(Cl)ccc2n1CCCNC(=O)CN1CCc2cccc(O)c2C1 5.44

Proceed to COc1cccc2c1CN(CC(=O)N1c3ccccc3Sc3ccc(SC)cc31)CC2 4.68

Follow-up entry: COc1cccc2c1CN(CC(=O)N1c3ccccc3Sc3ccccc31)CC2 5.63

And what about the molecule COc1cc2c(cc1OC)CN(CCNC(=S)NC(c1ccccc1)c1ccccc1)CC2 ? 6.11

Lookup CS(=O)(=O)Nc1cccc2c1CN(CC(=O)N1c3ccccc3Oc3ccccc31)CC2 5.74
